Data provenance: patent US20110152090A1

# Tested on: MATCH (Matricaria chamomilla), sensitive and resistant
# assay method text: Greenhouse trial: resistant biotypes, PE application (test method 9)
# Assay type: in vivo
# test context: sensitive biotype, g of AS/ha: (A) 90, (B) 1200, (C) 90, iodosulfuron 10
# Description: In the standard design of the test, seeds of various broad-leaved weed and weed grass biotypes (origins) were sown in a 8-13 cm diameter pot filled with natural soil of a standard field soil (loamy silt; non-sterile) and covered with a covering soil layer of about 1 cm. The pots were then cultivated in a greenhouse (12-16 h of light, temperature day 20-22° C., night 15-18° C.) until the time of application. […]
measure: activity MATCH sensitive (visual scale 0-100%)

{"molecule": "COc1nc(C)nc(NC(=O)NS(=O)(=O)c2cc(I)ccc2C(=O)O)n1", "units": "%", "numeric readout": 100}
{"molecule": "CC(C)N(C(=O)COc1nnc(C(F)(F)F)s1)c1ccc(F)cc1", "units": "%", "numeric readout": 30}
{"molecule": "CCCN(CCC)C(=O)SCc1ccccc1 [(B) prosulfocarb, S-(phenylmethyl) dipropylcarbamothioate]", "units": "%", "numeric readout": 0}
{"molecule": "O=C(Nc1ccc(F)cc1F)c1cccnc1Oc1cccc(C(F)(F)F)c1", "units": "%", "numeric readout": 30}

----------
# System: MATCH (Matricaria chamomilla), sensitive and resistant
# assay method text: Greenhouse trial: resistant biotypes, PE application (test method 9)
# Type: in vivo
# test context: resistant biotype, g of AS/ha: (A) 90, (B) 1200, (C) 90, iodosulfuron 10
Form field: activity MATCH resistant (visual scale 0-100%) (one value per entry).
measure: activity MATCH resistant (visual scale 0-100%)

{"compound": "O=C(Nc1ccc(F)cc1F)c1cccnc1Oc1cccc(C(F)(F)F)c1", "numeric readout": 30}
{"compound": "CC(C)N(C(=O)COc1nnc(C(F)(F)F)s1)c1ccc(F)cc1", "numeric readout": 30}
{"compound": "CCCN(CCC)C(=O)SCc1ccccc1 [(B) prosulfocarb, S-(phenylmethyl) dipropylcarbamothioate]", "numeric readout": 25}
{"compound": "COc1nc(C)nc(NC(=O)NS(=O)(=O)c2cc(I)ccc2C(=O)O)n1", "numeric readout": 60}
